Hey, just so you know, these numbers are from patent US8901118B2.

Target: BCR-NTRK3 BaF3 cells (Homo sapiens)
Construct: fused on or other part: P11274 (Breakpoint cluster region protein)
Sequence (Q16288 whole entry, the tested form may be a part): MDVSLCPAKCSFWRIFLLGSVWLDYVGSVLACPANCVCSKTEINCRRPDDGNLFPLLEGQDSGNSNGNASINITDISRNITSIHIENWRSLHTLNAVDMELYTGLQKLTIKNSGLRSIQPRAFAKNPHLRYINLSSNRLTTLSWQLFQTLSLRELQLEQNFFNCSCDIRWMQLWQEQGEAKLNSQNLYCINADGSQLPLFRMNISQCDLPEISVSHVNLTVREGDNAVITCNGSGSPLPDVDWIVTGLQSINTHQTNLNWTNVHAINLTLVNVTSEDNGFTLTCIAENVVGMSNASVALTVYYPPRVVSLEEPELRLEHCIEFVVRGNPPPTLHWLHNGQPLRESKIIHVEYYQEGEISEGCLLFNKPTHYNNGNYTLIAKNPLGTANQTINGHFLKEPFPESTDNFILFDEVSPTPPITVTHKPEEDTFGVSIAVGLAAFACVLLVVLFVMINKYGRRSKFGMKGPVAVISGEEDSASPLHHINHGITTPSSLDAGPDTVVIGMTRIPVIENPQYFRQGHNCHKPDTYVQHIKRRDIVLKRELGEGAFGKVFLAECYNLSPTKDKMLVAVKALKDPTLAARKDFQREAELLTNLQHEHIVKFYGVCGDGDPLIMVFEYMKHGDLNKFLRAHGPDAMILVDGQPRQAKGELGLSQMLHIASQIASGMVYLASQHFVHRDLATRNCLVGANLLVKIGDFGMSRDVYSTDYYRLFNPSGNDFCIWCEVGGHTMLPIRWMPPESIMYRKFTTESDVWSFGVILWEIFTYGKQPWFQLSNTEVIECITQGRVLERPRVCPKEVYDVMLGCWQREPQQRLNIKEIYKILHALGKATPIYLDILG
Protocol text: BaF3 BCR-NTRK3 cell proliferation assay (ATPlite)
Setup conditions: read-out: Inhibition of Cell Proliferation IC50, BCR/BaF3 TrkC
Quantity measured: IC50

* O=C(c1ccc(NC2CCC(F)(F)CC2)nc1Cl)c1c[nH]c2ncnc(NCC(F)(F)F)c12 | < 1000 nM
* O=C(c1ccc(NC2CCC(F)(F)CC2)nc1F)c1c[nH]c2ncnc(NC3CC3)c12 | < 10 nM
* CCc1ccc(Nc2ccc(Cc3c[nH]c4ncnc(C)c34)c(F)n2)cn1 | < 10 nM
* Fc1nc(NC2CCC(F)(F)CC2)ccc1Cc1c[nH]c2ncc(Cl)cc12 | > 10000 nM
* CCOc1ncnc2[nH]cc(C(=O)c3ccc(Nc4ccc(OC)nc4)nc3F)c12 | < 100 nM
* COc1ccc(Nc2ccc(C(=O)c3c[nH]c4ncnc(N[C@@H](C)c5ccc(F)cc5)c34)c(F)n2)cn1 | < 10 nM
* CCc1ccc(Nc2ccc(C(=O)c3c[nH]c4ncnc(NCC(C)(C)O)c34)c(F)n2)cn1 | < 10 nM

Shifting focus to the molecule that follows.
Please fill in: IC50 reported for COc1ccc(Nc2ccc(C(=O)c3c[nH]c4ncnc(NC(C)C)c34)c(F)n2)cn1 = < 10 nM

---

pIC50: −log10 of the molar value.
Target or system CYP2C19 (Homo sapiens, UniProt P33261): recorded pIC50 listed per item.

Example entries and their recorded answers appear below.
- CNc1ncnc2[nH]cc(C(=O)c3ccc(Nc4ccc(C5CC5)nc4)nc3F)c12 [Compound P-4094]: > 5.30
- COCCOc1ncnc2[nH]cc(Cc3ccc(Nc4ccc(C)nc4)nc3F)c12 [Compound P-4015]: < 5.00
- COc1ccc(Nc2ccc(C(=O)c3c[nH]c4ncnc(N[C@@H](C)c5ccc(F)cc5)c34)c(F)n2)cn1 [Compound P-4072]: > 5.00

Please fill in: pIC50 reported for CCc1ccc(Nc2ccc(C(=O)c3c[nH]c4ncnc(NCC(F)(F)F)c34)c(F)n2)cn1 [Compound P-4120] = > 5.30

Please fill in: pIC50 reported for O=C(c1ccc(NC2CCC(F)(F)CC2)nc1Cl)c1c[nH]c2ncnc(NCC(F)(F)F)c12 [Compound P-4057] = < 5.00

Please fill in: pIC50 reported for CNc1ncnc2[nH]cc(C(=O)c3ccc(NC4CCCCC4)nc3F)c12 [Compound P-4102] = > 5.30

Please fill in: pIC50 reported for CCCCNc1ncnc2[nH]cc(C(=O)c3ccc(Nc4ccc(CC)nc4)nc3F)c12 [Compound P-4100] = > 5.30

Please fill in: pIC50 reported for CCc1ccc(Nc2ccc(C(=O)c3c[nH]c4ncnc(NC5CCCC5)c34)c(F)n2)cn1 [Compound P-4099] = > 5.30

Please fill in: pIC50 reported for CCc1ccc(Nc2ccc(Cc3c[nH]c4ncnc(OC)c34)c(F)n2)cn1 [Compound P-4007] = < 5.00

Please fill in: pIC50 reported for CCn1cc(Nc2ccc(Cc3c[nH]c4ncnc(C5CC5)c34)c(F)n2)cn1 [Compound P-4036] = 5.00 to 5.30

---

Target: BCR-NTRK3 BaF3 cells (Homo sapiens)
Construct: fused on or other part: P11274 (Breakpoint cluster region protein)
Protocol text: BaF3 BCR-NTRK3 cell proliferation assay (ATPlite)
Type: cell-based
Setup conditions: read-out: Inhibition of Cell Proliferation IC50, BCR/BaF3 TrkC
Quantity measured: IC50

Example entries and their recorded answers appear below.
- COc1ccc(Nc2ccc(C(=O)c3c[nH]c4ncnc(N5CCCCC5)c34)c(F)n2)cn1: > 1000 nM
- CCNc1ncnc2[nH]cc(C(=O)c3ccc(Nc4ccc(C5CC5)nc4)nc3F)c12: < 10 nM
- CCc1ccc(Nc2ccc(C(=O)c3c[nH]c4ncnc(NCC(F)(F)F)c34)c(F)n2)cn1: < 10 nM

Please fill in: IC50 reported for COc1ccc(Nc2ccc(C(=O)c3c[nH]c4ncnc(NC5CCCC5)c34)c(F)n2)cn1 = < 10 nM
